experiment_notes: ACEA_AR_agonist_AUC_viability: ACEA Biosciences xCELLigence Real-Time Cell Analysis on Androgen Receptor Agonism for Viability (AID 2283775)
Inconclusive results are not listed. Active and inactive are the calls of the source. The calls were made as follows: active = hit-call score of the fitted dose curve at least 0.9, where 1 is the maximum; inconclusive = response in the unintended direction; inactive = score below 0.9.
Outcomes you can answer with include only these: active, inactive

[[record]]
compound = "NCCOCCOCCN"
assigned_class = "inactive"

[[record]]
compound = "CN(C)CCCN1c2ccccc2Sc2ccc(Cl)cc21"
assigned_class = "active"

[[record]]
compound = "CC(N)=O"
assigned_class = "inactive"


q: Identify the outcome logged in this assay for the compound shown: N[C@@H](Cc1c[nH]c2ccccc12)C(=O)O
a: inactive

q: Identify the outcome logged in this assay for the compound shown: COC(=O)CCC(=O)OC
a: inactive

q: Identify the outcome logged in this assay for the compound shown: CCCCC(CC)COC(=O)CCCCCCCC(=O)OCC(CC)CCCC (stereo not drawn)
a: inactive

q: Identify the outcome logged in this assay for the compound shown: Cn1cnc2c1c(=O)[nH]c(=O)n2C
a: inactive

q: Identify the outcome logged in this assay for the compound shown: Oc1ccccc1O
a: active
